# protocol.notes: DUSP6 inhibitors restoring Erk phosphorylation by chemical complementation, primary imaging in DUSP6-transfected HeLa (AID 609)
# stated.conditions: HeLa MKP-3 transfected, phospho-Erk imaging KS statistic; measured here: cell density z-score; at 10 µM; cells stimulated with TPA for 15 min
Below, each entry is listed alongside its reported z-score.

Example molecules with recorded z-score:
molecule	z-score
Cn1c(NCc2ccccc2)nc2c1c(=O)n(Cc1ccccc1)c(=O)n2C	0.899
CC1(C)C2CCC1(C)C(OC(=O)CC(=O)O)C2 (centres undefined)	0.899
O=C(C/C(=N/O)c1ccccc1O)C(F)F	-0.709
CC1(C)Cc2nc3sc4c(N(CCO)CCO)ncnc4c3cc2CO1	-1.35
CC(NC(=O)Nc1cccnc1)(C(F)(F)F)C(F)(F)F	0.533
CCOc1ccc(NC(=O)c2nn(C)cc2Br)cc1	0.327
COCc1[nH]nc2c1C(c1ccc(OC)cc1)C(C#N)=C(N)O2 (centres undefined)	-1.64
CCN(CC)CCN1C(=O)C(O)=C(C(=O)c2cc3ccccc3o2)C1c1cccnc1 (centres undefined)	-0.472

### Prompt Any idea what its z-score is? The molecule is CCOC(=O)C1=C(C)NC(=O)C1CC(=O)Nc1ccccc1 (centres undefined)
### Response -0.173

* * *

# system: Dual specificity protein phosphatase 6 (Homo sapiens) (UniProt Q16828)
# Sequence (Q16828 whole entry, looked up): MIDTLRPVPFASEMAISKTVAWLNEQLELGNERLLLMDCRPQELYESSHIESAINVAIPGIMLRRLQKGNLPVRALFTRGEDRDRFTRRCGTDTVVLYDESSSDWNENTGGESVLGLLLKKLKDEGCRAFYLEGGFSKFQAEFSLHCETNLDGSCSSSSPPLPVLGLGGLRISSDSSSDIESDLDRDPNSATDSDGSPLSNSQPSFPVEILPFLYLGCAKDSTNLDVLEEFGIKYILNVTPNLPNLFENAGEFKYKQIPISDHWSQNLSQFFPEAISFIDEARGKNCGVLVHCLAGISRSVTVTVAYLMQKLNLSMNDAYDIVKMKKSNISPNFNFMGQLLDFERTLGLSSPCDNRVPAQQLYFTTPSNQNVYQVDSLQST
# protocol.notes: DUSP6 inhibitors restoring Erk phosphorylation by chemical complementation, primary imaging in DUSP6-transfected HeLa (AID 609);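 for inhibition: phospho-Erk level distribution per well compared with pooled transfected vehicle control wells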
# stated.conditions: HeLa MKP-3 transfected, phospho-Erk imaging KS statistic; at 10 µM; stronger effect = higher value; cells stimulated with TPA for 15 min
assay.readout: inhibition (%)
Supply the numeric figure in %, leaving out any unit text.

molecule	inhibition, %
C=CCn1c(SCC(=O)c2ccc(NS(=O)(=O)c3ccccc3)cc2)nnc1-c1cccs1	-13.3
COC(=O)c1ccc(CSc2nc(N3CCOCC3)c3c(c2C#N)CC(C)(C)OC3)o1	1.63
Cc1ccc(-n2ncc3c(N4CCC(C(N)=O)CC4)ncnc32)c(C)c1	7.42
FC(F)(F)c1cccc(N2CCc3cn[nH]c32)c1	15.9
CC1(C)Cc2c(c(N3CCOCC3)nc3snc(Br)c23)CO1	5.42
COC(=O)c1cc(Br)c(=O)n(-c2cc(C)on2)c1	-2.91
COc1ccc2[nH]cc(C(=O)CN(C)CCc3ccc(OC)c(OC)c3)c2c1	-14.6
COc1ccc(Nc2cc(C)nc(-n3nc(C)cc3C)n2)cc1	-3.95
Cc1ccccc1N1C(=O)CC(Sc2nnc(-c3ccccc3)o2)C1=O (centres undefined)	5.95
COc1ccc(-c2nn(C)c(=O)c3ccccc23)cc1NS(C)(=O)=O	11.9

### Prompt Find the measured inhibition: item COC(=O)c1ccccc1OCc1cccc(C)n1 , target or system Dual specificity protein phosphatase 6 (Homo sapiens) (UniProt Q16828).
### Response 1.9e-07

### Prompt Find the measured inhibition: item NC(=O)/C(=N\O)c1ccccc1 , target or system Dual specificity protein phosphatase 6 (Homo sapiens) (UniProt Q16828).
### Response -4.7

### Prompt Find the measured inhibition: item Clc1ccc(-n2ncc3c(NCc4ccco4)ncnc32)cc1 , target or system Dual specificity protein phosphatase 6 (Homo sapiens) (UniProt Q16828).
### Response 19.4

### Prompt Find the measured inhibition: item CC(NC(=O)NCc1cccnc1)(C(F)(F)F)C(F)(F)F , target or system Dual specificity protein phosphatase 6 (Homo sapiens) (UniProt Q16828).
### Response -2.09

### Prompt Find the measured inhibition: item c1ccc(-n2c(Cc3cccnc3)nc3cnccc32)cc1 , target or system Dual specificity protein phosphatase 6 (Homo sapiens) (UniProt Q16828).
### Response -6.48

src = PubChem BioAssay
